The reported numbers originate from patent US20220073643A1.

biological target: Claudin18.2-His protein (human); assay: indirect ELISA on coated Claudin18.2-His
metric: EC50 (µg/mL)
Express your answer in µg/mL, writing the number without its unit.

// query Reported EC50, binder 420H7E6 (antibody, V domains shown) VH: DVQLVESGGGLVQPGGSRKLSCVTSGFTFSSFGMHWIRQAPEKGLEWVAFISGGGSPIFYADSVKGRFTVSRDNPKNTLFLQMTGLRSEDTAMYFCARFYFGNSFAYWGQGTLVTVSA VL: DIVMAQSPSSLTVTAGEKVTMNCRSSQSLFNSGNQKNYLTWYQQKPGQPPKLLIYWASTRESGVPVRFTGSGSGTDFTLTISSVQAEDLAVYYCQTGFSYPLTFGPGTKLELK : ____
// result 0.0545

// query Reported EC50, binder 265E6G2 (antibody, V domains shown) VH: QAYLQQSGAELVRSGASVKMSCKASGYTFTSYNMHWVKQTPGQGLEWIGYIYPGNGGTNYNQKFKGKATLTADTSSSTAYMQISSLTSEDSAVYFCARDYYGNSFAYWGQGTLVTVSA VL: DLVMTQSPSSLTVTAGEKVTMSCKSSQSLLNSGNQKNYLTWYQQKPGQPPKLLIYWASTRESGVPDRFTGSGSGTDFTLTISNIQAEDLAVYYCQNDYSYPLPFGAGTKLELR : ____
// result 0.0183

// query Reported EC50, binder 248E6A7 (antibody, V domains shown) VH: QAYLQQSGAELVRSGASVKMSCRASGYTFTSHNMHWVKQTPGQGLEWIGYIYPGNGNTYYNQKFKVKATLTADTSSNTAYMQINSLTSEDSAVYFCVRDYYGNSFVYWGQGTLVTVSA VL: DVVMTQSPSSLTEKTGEKVTMTCKSSQSLLNSGNQKNYLAWYQQKPGQPPKLLIYWASTRESGVPDRFIGSGSGTDFTLTISSLQTEDLAVYYCQNNYMYPFTFGAGTKLELK : ____
// result 0.00969

// query Reported EC50, binder 203A6C9 (antibody, V domains shown) VH: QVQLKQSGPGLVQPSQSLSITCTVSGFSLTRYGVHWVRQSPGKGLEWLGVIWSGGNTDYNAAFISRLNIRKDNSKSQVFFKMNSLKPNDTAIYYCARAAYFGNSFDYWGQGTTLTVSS VL: DIVMTQSPSSLPVTAGEKVTMSCKSSQSLLNSGNQKNYLTWYQQKPGQPPKLLIYWASTRDSGVPDRFTGSGSGTDFTLTISSVQAEDLAVYYCQNNYIYPLTFGAGTKLELK : ____
// result 0.0654

// query Reported EC50, binder 259B4D4 (antibody, V domains shown) VH: EIQLQQSGPELMKPGASVRISCKASGYSFTSYYMHWMKQSHVKSLEWIGYIDPFNGNTRYNQKFKDKATLTVDKSSTTAYMHLSSLTSEDSAVYFCASLRFFAYWGQGTLVTVSA VL: DIVMTQSPSSLTVTAGEKVTMSCNSSQSLLNSGNQKNYLTWYQQKPGQPPKLLIYWASSRESGVPDRFTGSGSGTDFTLTISTVQAEDLAVYYCQNDYSFPLTFGAGTRLELK : ____
// result 0.0197

// query Reported EC50, binder 425B3D5 (antibody, V domains shown) VH: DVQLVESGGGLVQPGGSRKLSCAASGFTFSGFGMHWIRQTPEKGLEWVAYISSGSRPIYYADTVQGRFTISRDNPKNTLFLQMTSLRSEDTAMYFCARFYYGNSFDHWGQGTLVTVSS VL: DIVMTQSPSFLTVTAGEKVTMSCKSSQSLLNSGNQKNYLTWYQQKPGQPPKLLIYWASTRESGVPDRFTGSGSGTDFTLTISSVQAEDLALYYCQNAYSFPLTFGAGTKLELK : ____
// result 0.0037

// query Reported EC50, binder 405G8F11 (antibody, V domains shown) VH: DVQLVESGGGLVQPGGSRKLSCVTSGFTFSSFGMHWVRQAPEKGLEWVAYISSGSSPIYYADTVKGRFTISRDNPKNTLFLQMSSLRSEDTAMYFCARFYYGNSFAYWGQGTLVTVSA VL: DIVMTQSPSSLTVTAGEKVTMNCKSSQSLLNSGNQKNYLTWYQQKLGQPPKLLMYWASTRESGVPDRFTGSGSGTDFTLTISSVQAEDLAVYFCQSAFSYPLTFGAGTKLELK : ____
// result 0.00199

// query Reported EC50, binder 233D5E5 (antibody, V domains shown) VH: QAYLQQSGAELVRSGASVKMSCKASGYTFTSHNMHWVKQTPRQGLEWIGYIYPGNGDTNYNQKFKGKATLTADTSSSTAYMQISSLTSEDSAVYFCTRDYYGNSFAYWGQGTLVTVSA VL: DIVMTQSPSSLTEKAGERVSMSCKSSQSLFNSGNQKNYLTWYQQKPGQPPKLLIYWASTRESGVPDRFTGSGSGTDFTLTISSVQAEDLAVYYCQNAYWYPFTFGAGTKLELK : ____
// result 0.0943

// query Reported EC50, binder 242H12D6 (antibody, V domains shown) VH: QAYLQQSGAELVRSGASVKMSCKASGYTFTSHNMHWVKQTPGQGLEWIGYIYPGNGGTNYNQKFKGKATLTADTSSSTAYMQINSLTSEDSAVYFCTRDYYGNSFAYWGQGTLVTVSA VL: DIVMTQSPSSLTEKAGERVSMSCKSSQSLFNSGNQKNYLTWYQQKPGQPPKLLIYWASTRESGVPDRFTGSGSGTDFTLTISSVQAEDLAVYYCQNDYRYPFTFGAGTKLELK : ____
// result 0.0164

// query Reported EC50, binder 240D6F5 (antibody, V domains shown) VH: QAYLQQSGAELVRSGASVKMSCKASGYTFTSHNMHWVKQTPGQGLEWIGYIYPGNGGTNYNQKFKGKATLTADPSSSTAYMQINSLTSEDSAVYFCTRDYYGNSFAYWGQGTLVTVSA VL: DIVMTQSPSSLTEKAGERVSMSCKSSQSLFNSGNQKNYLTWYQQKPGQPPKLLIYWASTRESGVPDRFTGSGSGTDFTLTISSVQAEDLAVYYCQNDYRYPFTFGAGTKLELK : ____
// result 0.00792
